# System: HT29 cells
# testName: Cytotoxicity assay, crystal violet staining
# Format: cell-based
# setupConditions: Homo sapiens, HT-29, HT29, 72 h, read-out: IC50 (concentration inhibiting 50% of the tumor proliferation)
# Protocol: Cell lines were seeded into 96-well plates. After 24 h of culture, the cells were treated with increasing concentrations of resveratrol for 72 h. All control and treated cells received the same volume of ethanol (0.1%). After time of treatment, cells were harvested and the toxicities were evaluated by crystal violet staining. […] Absorbances were read at 540 nm with a Biochrom Asys UVM 340 spectrophotometer, after the extraction of the dye by 0.1 M sodium citrate in 50% ethanol. […]
pIC50: −log10 of the molar value.
reportedProperty: pIC50

> print(dat)
                                   compound         tgt  reportedproperty  value
1  Oc1ccc(/C=C/c2cc(O)cc(O)c2)cc1 [RSV, trans 3,5,4′ trihydroxystilbene]  HT29 cells             pIC50  ~4.40
